- study.system: Free fatty acid receptor 4 (Homo sapiens)
- Sequence (Q5NUL3 whole entry): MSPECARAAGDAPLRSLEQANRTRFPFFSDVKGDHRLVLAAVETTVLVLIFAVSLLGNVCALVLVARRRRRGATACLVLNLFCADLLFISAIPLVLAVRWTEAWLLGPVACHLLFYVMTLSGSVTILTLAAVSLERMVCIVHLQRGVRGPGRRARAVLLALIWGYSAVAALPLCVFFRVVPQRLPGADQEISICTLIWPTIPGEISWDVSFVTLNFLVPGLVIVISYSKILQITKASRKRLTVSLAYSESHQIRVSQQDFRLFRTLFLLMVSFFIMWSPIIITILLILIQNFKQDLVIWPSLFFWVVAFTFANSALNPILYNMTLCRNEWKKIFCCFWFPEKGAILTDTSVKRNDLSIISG
- assay.procedure: GPR120 pERK AlphaScreen SureFire Assay: The human and mouse GPR120-mediated intracellular phosphorylated ERK assays were also established using CHO-K1 cells stably transfected with the short form of human or mouse GPR120 receptor. Cells were cultured in growth medium consisting of F-12 media (Invitrogen Cat. #11765) with 5% Charcoal/Dextran FBS (Invitrogen Cat. #12676-029) and 500 μg/mL GENETICIN® (Life Technologies Cat. #10131-027). Cells were cryo preserved at a concentration of 3×10^6 cells/mL, in 70% F-12, 20% Charcoal/Dextran FBS and 10% DMSO, and frozen in liquid nitrogen at a low passage number.For the pERK assay, 3×10^6 cells/mL cryopreserved human and mouse cells were thawed rapidly in a 37° C. water bath and added to a T-225 flask containing 50 mL growth medium. The flasks were placed in a tissue culture incubator overnight (37° C., 5% CO2). The next day, cells were harvested with trypsin (Gibco Cat. #25300-054), resuspended in serum-containing growth medium and counted using a Cellometer and volume adjusted to a concentration of 0.5×10^6 cells/mL. Cells were plated into 384-well clear bottom tissue culture plates (BD Cat. #353962) at 50 μL/well, for a density of 25,000 cells/well using a MULTIDROP® and incubated for 16-18 hours (overnight) at 37° C. with 5% CO2. The next day, cells were washed once with 50 μL of PBS without Ca++/Mg++ (Gibco Cat. #14190-036) and serum starved in 25 μL of F-12 media without any serum or antibiotics for 2 hours at 37° C.
pEC50: −log10 of the molar value.
In this section, each of the molecules is paired with its reported pEC50.
metric: pEC50

O=C(O)CCCCc1ccc(C2CCCC(Nc3ccccc3)C2)cc1 (stereo not given)	5.52
O=C(O)CCCCc1ccc(N2CCC[C@@H](Oc3ccccc3)C2)cc1	6.11
O=C(O)CCCCc1ccc(N2CCCCC(Oc3ccc(F)cc3)C2)cc1 (stereo not given)	5.45
O=C(O)CCCCc1ccc(N2CCCC(Oc3ccccc3)C2)cc1 (stereo not given)	6.38
O=C(O)COCCc1ccc(N2CCCC(Oc3ccccc3)C2)cc1 (stereo not given)	5.62
